target: H^+,K^+-ATPase D136F (Sus scrofa, UniProt P19156, D137F); assay: ATPase assay, D136F mutant
Metric Name: Ki (µM)

Consider the worked cases shown below.
{"columns": ["Mol", "Scale Unit", "Ki"],
 "data": [
  ["N#CCc1cnc2c(OCc3ccccc3)cccn12", "µM", 6.7],
  ["Cc1nc2c3c(ccn2c1C)[C@@H](O)[C@H](O)[C@@H](c1ccccc1)N3C", "µM", 4]
]}

1 = Cc1cn2cccc(OCc3ccccc3)c2n1
2 = Cc1nc2c3c(ccn2c1C)[C@@H](O)[C@H](O)[C@@H](c1ccccc1)N3
QUERY: Return label of the item with the larger Ki. Candidates: 1 , 2 . Pick one; state its label.
RESULT: 1

----------
molecular target: H^+,K^+-ATPase N138L (Sus scrofa, UniProt P19156, N139L); test: ATPase assay, N138L mutant; details: N138L
Sequence (P19156 whole entry N139L): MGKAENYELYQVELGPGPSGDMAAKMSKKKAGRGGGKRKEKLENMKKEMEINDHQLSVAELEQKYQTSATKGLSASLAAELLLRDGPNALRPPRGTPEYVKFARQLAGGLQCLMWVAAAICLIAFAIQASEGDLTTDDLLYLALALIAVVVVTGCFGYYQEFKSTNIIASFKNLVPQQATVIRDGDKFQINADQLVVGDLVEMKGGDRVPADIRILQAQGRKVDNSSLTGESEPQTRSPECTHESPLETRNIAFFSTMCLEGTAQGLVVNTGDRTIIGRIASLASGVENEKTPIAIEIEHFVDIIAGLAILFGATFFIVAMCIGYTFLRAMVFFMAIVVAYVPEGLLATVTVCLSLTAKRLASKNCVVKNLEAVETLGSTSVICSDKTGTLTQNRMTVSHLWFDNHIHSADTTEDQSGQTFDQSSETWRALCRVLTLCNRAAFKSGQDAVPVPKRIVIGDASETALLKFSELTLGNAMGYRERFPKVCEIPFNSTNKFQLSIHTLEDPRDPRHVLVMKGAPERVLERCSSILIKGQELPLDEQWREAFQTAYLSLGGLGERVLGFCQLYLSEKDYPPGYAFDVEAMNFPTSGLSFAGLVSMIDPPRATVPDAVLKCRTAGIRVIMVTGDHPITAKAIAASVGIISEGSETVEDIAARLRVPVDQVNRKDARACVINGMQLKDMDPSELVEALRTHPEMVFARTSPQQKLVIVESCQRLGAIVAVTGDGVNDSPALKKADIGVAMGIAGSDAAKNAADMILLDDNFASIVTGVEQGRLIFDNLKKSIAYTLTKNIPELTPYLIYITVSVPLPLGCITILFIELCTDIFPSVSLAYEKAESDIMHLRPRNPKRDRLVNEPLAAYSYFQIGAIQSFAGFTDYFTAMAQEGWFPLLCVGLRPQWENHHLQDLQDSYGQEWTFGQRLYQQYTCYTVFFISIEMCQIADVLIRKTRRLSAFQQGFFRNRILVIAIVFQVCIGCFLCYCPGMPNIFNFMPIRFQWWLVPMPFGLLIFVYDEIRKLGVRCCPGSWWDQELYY
Sequence (P18434 whole entry partner): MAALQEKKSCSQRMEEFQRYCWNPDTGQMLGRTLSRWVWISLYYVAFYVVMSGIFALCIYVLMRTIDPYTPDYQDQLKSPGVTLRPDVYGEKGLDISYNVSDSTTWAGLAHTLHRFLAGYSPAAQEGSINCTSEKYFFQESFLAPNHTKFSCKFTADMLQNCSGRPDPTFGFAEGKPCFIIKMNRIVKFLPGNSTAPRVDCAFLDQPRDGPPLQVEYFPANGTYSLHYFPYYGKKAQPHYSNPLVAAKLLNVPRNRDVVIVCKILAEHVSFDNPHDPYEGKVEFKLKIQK
Metric Name: -fold increase in K i compared with wild-type (fold)

1 = Cc1nc2c3c(ccn2c1C)[C@@H](O)[C@H](O)[C@@H](c1ccccc1)N3
2 = Cc1cn2cccc(OCc3ccccc3)c2n1
3 = N#CCc1cnc2c(OCc3ccccc3)cccn12
QUERY: Order the records, beginning with the lowest -fold increase in K i compared with wild-type and ending with the highest. Note for the reader: the ranking is given by listing the labels in the order requested.
RESULT: 3, 2, 1

----------
biological target: H^+,K^+-ATPase A335C/C813A (Sus scrofa, UniProt P19156, A336C/C814A); test: ATPase assay, A335C/C813A mutant
pKi: −log10 of the molar value.
Metric Name: pKi

1 = Cc1cn2cccc(OCc3ccccc3)c2n1
2 = N#CCc1cnc2c(OCc3ccccc3)cccn12
QUERY: // compare measured pKi between 1 and 2 ; output the lower one I would appreciate it if you answered with the label of your choice.
RESULT: 2

----------
biological target: H^+,K^+-ATPase D137L (Sus scrofa, UniProt P19156, D138L); experiment: ATPase assay, D137L mutant; settings: D137L
Sequence (P19156 whole entry D138L): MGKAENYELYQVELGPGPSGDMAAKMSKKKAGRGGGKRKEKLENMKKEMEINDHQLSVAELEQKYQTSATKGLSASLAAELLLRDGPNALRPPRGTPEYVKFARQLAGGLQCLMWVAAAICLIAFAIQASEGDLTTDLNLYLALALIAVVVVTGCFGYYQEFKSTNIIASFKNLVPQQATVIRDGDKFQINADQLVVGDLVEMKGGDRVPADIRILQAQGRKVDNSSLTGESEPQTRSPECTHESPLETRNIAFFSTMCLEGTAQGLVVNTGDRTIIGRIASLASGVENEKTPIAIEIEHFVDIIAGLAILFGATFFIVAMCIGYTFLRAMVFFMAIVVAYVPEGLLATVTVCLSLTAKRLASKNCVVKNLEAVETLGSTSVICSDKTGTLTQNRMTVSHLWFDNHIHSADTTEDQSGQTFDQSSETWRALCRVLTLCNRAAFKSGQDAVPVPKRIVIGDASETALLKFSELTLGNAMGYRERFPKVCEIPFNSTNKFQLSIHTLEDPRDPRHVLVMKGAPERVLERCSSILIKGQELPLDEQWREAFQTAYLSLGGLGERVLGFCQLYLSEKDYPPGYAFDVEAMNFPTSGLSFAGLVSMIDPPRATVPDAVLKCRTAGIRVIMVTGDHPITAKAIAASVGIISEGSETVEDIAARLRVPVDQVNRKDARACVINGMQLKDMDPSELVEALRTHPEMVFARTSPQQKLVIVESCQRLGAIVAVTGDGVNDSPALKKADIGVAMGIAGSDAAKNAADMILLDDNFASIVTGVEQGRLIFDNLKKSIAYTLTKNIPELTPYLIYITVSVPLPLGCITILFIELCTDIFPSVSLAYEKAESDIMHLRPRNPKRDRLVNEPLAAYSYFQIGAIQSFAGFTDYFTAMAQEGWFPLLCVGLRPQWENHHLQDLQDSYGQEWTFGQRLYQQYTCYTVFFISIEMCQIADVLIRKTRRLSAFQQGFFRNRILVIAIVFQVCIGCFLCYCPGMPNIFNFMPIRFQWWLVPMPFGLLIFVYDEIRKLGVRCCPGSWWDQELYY
Sequence (P18434 whole entry partner): as the sequence (P18434 whole entry partner) above
Metric Name: -fold increase in K i compared with wild-type (fold)

{"columns": ["Mol", "Scale Unit", "Observed Measurement"],
 "data": [
  ["Cc1nc2c3c(ccn2c1C)[C@@H](O)[C@H](O)[C@@H](c1ccccc1)N3", "fold", 38]
]}

I = Cc1cn2cccc(OCc3ccccc3)c2n1
II = N#CCc1cnc2c(OCc3ccccc3)cccn12
QUERY: # argmax over -fold increase in K i compared with wild-type for candidates I and II Give the label of your selection.
RESULT: II

----------
biological target: H^+,K^+-ATPase WT (Sus scrofa, UniProt P19156); construct: permeabilised membrane fractions; test: K^+-competitive inhibition of H^+,K^+-ATPase activity, 96-well ATPase assay, wild-type; details: WT; global fitting; mean ± SEM
Sequence (P19156 whole entry): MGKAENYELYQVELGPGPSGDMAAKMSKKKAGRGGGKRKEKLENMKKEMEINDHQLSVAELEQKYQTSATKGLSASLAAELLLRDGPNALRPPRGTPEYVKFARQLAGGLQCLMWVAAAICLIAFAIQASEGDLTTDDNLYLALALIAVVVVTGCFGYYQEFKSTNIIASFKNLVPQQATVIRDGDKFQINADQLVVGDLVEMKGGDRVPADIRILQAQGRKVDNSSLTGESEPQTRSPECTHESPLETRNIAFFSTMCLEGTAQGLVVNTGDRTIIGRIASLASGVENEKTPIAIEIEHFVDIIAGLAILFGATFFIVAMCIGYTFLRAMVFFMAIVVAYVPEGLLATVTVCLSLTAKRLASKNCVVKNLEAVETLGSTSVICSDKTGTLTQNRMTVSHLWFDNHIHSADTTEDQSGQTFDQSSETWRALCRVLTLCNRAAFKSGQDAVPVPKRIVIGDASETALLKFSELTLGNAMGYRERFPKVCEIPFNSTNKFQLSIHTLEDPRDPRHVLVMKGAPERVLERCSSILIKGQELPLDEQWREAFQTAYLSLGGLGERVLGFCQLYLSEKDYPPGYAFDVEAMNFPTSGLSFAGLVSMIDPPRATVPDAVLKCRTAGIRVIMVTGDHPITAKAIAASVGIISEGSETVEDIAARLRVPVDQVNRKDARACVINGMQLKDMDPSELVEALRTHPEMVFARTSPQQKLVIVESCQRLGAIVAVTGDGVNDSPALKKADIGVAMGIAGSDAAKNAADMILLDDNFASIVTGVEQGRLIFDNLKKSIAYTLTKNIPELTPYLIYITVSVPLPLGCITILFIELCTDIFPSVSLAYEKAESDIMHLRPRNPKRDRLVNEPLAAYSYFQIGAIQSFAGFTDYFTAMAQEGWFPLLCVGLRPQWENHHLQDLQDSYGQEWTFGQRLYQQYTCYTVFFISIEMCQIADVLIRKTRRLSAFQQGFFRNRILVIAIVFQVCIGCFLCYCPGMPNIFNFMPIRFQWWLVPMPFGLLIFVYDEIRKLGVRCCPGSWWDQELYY
Sequence (P18434 whole entry partner): as the sequence (P18434 whole entry partner) above
Metric Name: Ki (µM)

a = N#CCc1cnc2c(OCc3ccccc3)cccn12
b = Cc1nc2c3c(ccn2c1C)[C@@H](O)[C@H](O)[C@@H](c1ccccc1)N3C
c = Cc1nc2c3c(ccn2c1C)[C@@H](O)[C@H](O)[C@@H](c1ccccc1)N3
d = Cc1cn2cccc(OCc3ccccc3)c2n1
QUERY: Rank items: key Ki, increasing. List the labels according to the requested ordering.
RESULT: c, d, b, a

----------
target: H^+,K^+-ATPase L139I (Sus scrofa, UniProt P19156, L140I); assay: ATPase assay, L139I mutant
Metric Name: Ki (nM)

{"columns": ["Mol", "Observed Measurement"],
 "data": [
  ["Cc1nc2c3c(ccn2c1C)[C@@H](O)[C@H](O)[C@@H](c1ccccc1)N3C", 1700],
  ["Cc1cn2cccc(OCc3ccccc3)c2n1", 1100]
]}

1 = Cc1nc2c3c(ccn2c1C)[C@@H](O)[C@H](O)[C@@H](c1ccccc1)N3
2 = N#CCc1cnc2c(OCc3ccccc3)cccn12
QUERY: # returns the entry with the larger Ki; inputs 1 and 2 Write down the label attached to your selection.
RESULT: 2

----------
biological target: H^+,K^+-ATPase D137L (Sus scrofa, UniProt P19156, D138L); assay: ATPase assay, D137L mutant
pKi: −log10 of the molar value.
Metric Name: pKi

P = Cc1nc2c3c(ccn2c1C)[C@@H](O)[C@H](O)[C@@H](c1ccccc1)N3
Q = N#CCc1cnc2c(OCc3ccccc3)cccn12
R = Cc1cn2cccc(OCc3ccccc3)c2n1
QUERY: Order these by pKi, descending, and give the full ranking. Put the labels in the requested order and list them out.
RESULT: P, R, Q
(P: 6.66, R: 4.49, Q: 3.57)

----------
target: H^+,K^+-ATPase D136F (Sus scrofa, UniProt P19156, D137F); assay: ATPase assay, D136F mutant; conditions: D136F
Metric Name: -fold increase in K i compared with wild-type (fold)

{"columns": ["Mol", "Measured On", "Scale Unit", "Observed Measurement"],
 "data": [
  ["N#CCc1cnc2c(OCc3ccccc3)cccn12", "H^+,K^+-ATPase D136F (Sus scrofa, UniProt P19156, D137F)", "fold", 0.6],
  ["Cc1cn2cccc(OCc3ccccc3)c2n1", "H^+,K^+-ATPase D136F (Sus scrofa, UniProt P19156, D137F)", "fold", 0.9],
  ["Cc1nc2c3c(ccn2c1C)[C@@H](O)[C@H](O)[C@@H](c1ccccc1)N3", "H^+,K^+-ATPase D136F (Sus scrofa, UniProt P19156, D137F)", "fold", 1.0],
  ["Cc1nc2c3c(ccn2c1C)[C@@H](O)[C@H](O)[C@@H](c1ccccc1)N3C", "H^+,K^+-ATPase D136F (Sus scrofa, UniProt P19156, D137F)", "fold", 0.8]
]}

----------
target: H^+,K^+-ATPase D137E (Sus scrofa, UniProt P19156, D138E); assay: ATPase assay, D137E mutant; details: high H^+-ATPase activity, K i' determined by K m/V max plot
Metric Name: Ki (µM)

P = Cc1cn2cccc(OCc3ccccc3)c2n1 [SCH-CN^−]
Q = Cc1nc2c3c(ccn2c1C)[C@@H](O)[C@H](O)[C@@H](c1ccccc1)N3 [BYK99]
QUERY: From the recorded data, which exceeds the other in Ki: P or Q ? Indicate which entry you chose by stating its label.
RESULT: P
(P: 4.4 µM, Q: 0.057 µM)

----------
target: H^+,K^+-ATPase L141I (Sus scrofa, UniProt P19156, L142I); experiment: ATPase assay, L141I mutant
pKi: −log10 of the molar value.
Metric Name: pKi

A = Cc1nc2c3c(ccn2c1C)[C@@H](O)[C@H](O)[C@@H](c1ccccc1)N3 [BYK99]
B = N#CCc1cnc2c(OCc3ccccc3)cccn12 [SCH-Me^−]
C = Cc1nc2c3c(ccn2c1C)[C@@H](O)[C@H](O)[C@@H](c1ccccc1)N3C [BYK73]
D = Cc1cn2cccc(OCc3ccccc3)c2n1 [SCH-CN^−]
QUERY: # rank above entries by pKi (max first, min last) # the answer lists labels in the order requested
RESULT: A, D, C, B

----------
molecular target: H^+,K^+-ATPase N138F (Sus scrofa, UniProt P19156, N139F); test: ATPase assay, N138F mutant; settings: N138F
Sequence (P19156 whole entry N139F): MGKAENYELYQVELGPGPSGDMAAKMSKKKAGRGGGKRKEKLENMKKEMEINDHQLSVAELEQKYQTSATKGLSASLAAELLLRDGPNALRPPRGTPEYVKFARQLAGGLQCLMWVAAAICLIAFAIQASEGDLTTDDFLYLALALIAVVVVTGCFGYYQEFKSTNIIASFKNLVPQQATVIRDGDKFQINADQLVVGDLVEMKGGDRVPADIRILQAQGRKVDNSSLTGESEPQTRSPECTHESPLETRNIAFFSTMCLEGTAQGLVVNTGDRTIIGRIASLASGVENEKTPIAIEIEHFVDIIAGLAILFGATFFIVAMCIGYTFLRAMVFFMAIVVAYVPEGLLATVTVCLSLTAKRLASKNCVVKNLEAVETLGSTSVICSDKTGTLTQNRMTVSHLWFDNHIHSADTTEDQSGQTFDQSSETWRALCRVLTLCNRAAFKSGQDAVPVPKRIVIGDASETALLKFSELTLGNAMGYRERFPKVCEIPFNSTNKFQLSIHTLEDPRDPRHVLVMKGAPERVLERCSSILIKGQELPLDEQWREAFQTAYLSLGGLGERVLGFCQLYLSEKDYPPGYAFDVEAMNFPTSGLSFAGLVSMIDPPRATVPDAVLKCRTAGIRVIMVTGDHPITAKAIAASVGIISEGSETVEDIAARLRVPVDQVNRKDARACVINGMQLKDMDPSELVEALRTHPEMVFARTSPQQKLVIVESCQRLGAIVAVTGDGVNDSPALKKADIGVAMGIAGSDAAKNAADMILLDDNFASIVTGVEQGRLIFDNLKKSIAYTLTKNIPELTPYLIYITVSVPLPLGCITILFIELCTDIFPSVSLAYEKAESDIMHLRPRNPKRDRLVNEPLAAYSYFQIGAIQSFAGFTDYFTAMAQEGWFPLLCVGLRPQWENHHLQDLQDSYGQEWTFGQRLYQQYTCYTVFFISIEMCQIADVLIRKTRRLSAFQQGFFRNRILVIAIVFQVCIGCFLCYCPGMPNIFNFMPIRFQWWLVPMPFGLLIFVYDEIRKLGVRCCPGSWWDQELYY
Sequence (P18434 whole entry partner): as the sequence (P18434 whole entry partner) above
Metric Name: -fold increase in K i compared with wild-type (fold)

{"columns": ["Molecule", "Measured On", "Scale Unit", "Observed Measurement"],
 "data": [
  ["N#CCc1cnc2c(OCc3ccccc3)cccn12 [SCH-Me^−]", "H^+,K^+-ATPase N138F (Sus scrofa, UniProt P19156, N139F)", "fold", 29]
]}

a = Cc1cn2cccc(OCc3ccccc3)c2n1 [SCH-CN^−]
b = Cc1nc2c3c(ccn2c1C)[C@@H](O)[C@H](O)[C@@H](c1ccccc1)N3 [BYK99]
QUERY: // compare: a vs b , metric -fold increase in K i compared with wild-type, want the smaller # reply format: chosen label
RESULT: a

----------
molecular target: H^+,K^+-ATPase D137A (Sus scrofa, UniProt P19156, D138A); assay: ATPase assay, D137A mutant
pKi: −log10 of the molar value.
Metric Name: pKi

{"columns": ["Mol", "Measured On", "Metric Name", "Observed Measurement"],
 "data": [
  ["N#CCc1cnc2c(OCc3ccccc3)cccn12", "H^+,K^+-ATPase D137A (Sus scrofa, UniProt P19156, D138A)", "pKi", 4.21]
]}

A = Cc1nc2c3c(ccn2c1C)[C@@H](O)[C@H](O)[C@@H](c1ccccc1)N3C
B = Cc1nc2c3c(ccn2c1C)[C@@H](O)[C@H](O)[C@@H](c1ccccc1)N3
C = Cc1cn2cccc(OCc3ccccc3)c2n1
QUERY: Give the ascending ranking of the items by reported pKi. Your reply should list the labels following the order given in the request.
RESULT: A, C, B
